# TGI listing for each entry below
Tested on: DMS 114 small cell lung
protocol details: NCI tumour cell line growth inhibition, 48 h
metric name: TGI

                                   molecule  metric_name    result
0  CCOC(=O)N1CCc2cc(OC)c(OC)cc2/C1=C/c1ccc(OC)c(OC)c1          TGI  > 100 µM
1  O=C1[C@@H]2C(c3ccncc3)=NO[C@@H]2C(=O)N1c1ccc(Cc2ccc(N3C(=O)[C@H]4C(c5ccncc5)=NO[C@H]4C3=O)cc2)cc1          TGI  > 100 µM
2  Cc1cccc(C)c1NC(=O)CCCC(=O)C(C#N)c1ccc(Cl)cc1 (stereo not drawn)          TGI  > 100 µM
3  COc1ccc(C(=O)C/C(=N/NC(N)=S)C(=O)Nc2ccccc2)cc1          TGI  > 100 µM
4   C/C(=C(/C)c1cc[n+](C)cc1)c1cc[n+](C)cc1          TGI   50.3 µM
5  Cc1cccc(Cl)c1NC(=O)c1cccc([N+](=O)[O-])c1O          TGI   83.1 µM
6  C[N+]1(C)C/C(=C\c2ccc(O)cc2)C(=O)/C(=C/c2ccc(O)cc2)C1          TGI  > 100 µM
7  C=CCN(N=O)C(=O)N(CCCCC(NC(C)=O)C(=O)NCc1ccccc1)Cc1ccccc1 (stereo not drawn)          TGI   86.4 µM

* * *

System: OVCAR-3 ovarian
protocol details: NCI tumour cell line growth inhibition, 48 h
metric name: TGI

>>> df
                                   compound    result
0  COC(=O)C1=C(C(=O)OC)C(OO)(c2ccccc2)OC1=O (stereo not drawn)  > 100 µM
1        CCOc1ccc(NC(=O)c2cc3ccccc3cc2O)cc1  > 100 µM
2  Cc1ncc([N+](=O)[O-])n1CCNC(=O)Cn1ccnc1[N+](=O)[O-]  > 100 µM

* * *

Test system: UACC-257 melanoma
protocol details: NCI tumour cell line growth inhibition, 48 h

molecule	TGI
COc1cc2c(c(OC)c1OC)C(=O)c1c-2n(CCCN=[N+]=[N-])c(=O)c2cc([N+](=O)[O-])ccc12	> 100 µM
CCOC(=O)C(O)Cc1cnc2ccccc2n1 (stereo not given)	> 100 µM
O=S(=O)([O-])[O-].[Fe+2].[OH2+]c1c(Cl)cc(Cl)cc1/C=N/Nc1ccccn1	2.63 µM
[O-]/[N+](=N/c1ncc(-c2ccccc2)cn1)c1ncc(-c2ccccc2)cn1	> 100 µM
CC1=NN(C(=O)CC(=O)Nc2ccc(Cl)cc2)C(=O)C1N=Nc1ccc(S(=O)(=O)c2ccc(N=NC3C(=O)N(C(=O)CC(=O)Nc4ccc(Cl)cc4)N=C3C)cc2)cc1 (stereo not given)	> 100 µM
